Tested on: N140
Assay: qHTS profiling for inhibitors of Plasmodium falciparum proliferation (AID 504749); note: nearly all actives have a fitted effect of over 60% in size
Conditions: P. falciparum in erythrocytes, SYBR Green DNA, 72 h; series mostly up to 28.7 µM
Results filed as inconclusive are left out. The source made the active and inactive calls. Calls come from the whole dose curve; as a rule, active = well fitted inhibition curve with a large enough effect; inconclusive = small, poorly fitted or top-dose-only effect; inactive = flat fitted curve, though single readings scatter.
Log the outcome using a class from active, inactive

| compound.smiles | experimental.target | group |
| --- | --- | --- |
| CN(C)CCC[C@@]1(c2ccc(F)cc2)OCc2cc(C#N)ccc21 | N140 | inactive |
| Cc1nc(-c2ccc(Cl)cc2)oc1COC(C)(C)C(=O)O | N140 | inactive |
| COc1cc(C(=S)N2CCOCC2)ccc1O | N140 | inactive |
| CCCCCN=C(N)N/N=C/c1c[nH]c2ccc(OC)cc12 | N140 | active |

Query block: Fill in: this test's call for Nc1ccc(C(=O)NCC(=O)O)cc1 is ___
Result block: inactive

Query block: How about CNCCc1ccccn1 ?
Result block: inactive

---

Test: qHTS of pediatric cancer cell lines to identify multiple opportunities for drug repurposing: Primary screen for BT-12 cells (AID 1347101); note: nearly all actives have a fitted effect of over 25% in size
Conditions: BT-12 viability, CellTiter-Glo luminescence, 48 h; series mostly up to 57.3 µM
Results filed as inconclusive are left out. Calls of active or inactive are those of the source. Calls come from the whole dose curve; as a rule, active = well fitted cell-killing curve with a large enough effect; inconclusive = small, poorly fitted or top-dose-only effect; inactive = flat fitted curve, though single readings scatter.
Log the outcome using a class from active, inactive

| molecule | group |
| --- | --- |
| Cc1ccc(S(=O)(=O)NC(=O)NC2CCCC2)cc1 | inactive |
| O=C(O)CCC(=O)Nc1ccc(S(=O)(=O)Nc2nccs2)cc1 | inactive |

Query block: Fill in: this test's call for O=C(Nc1ccc([N+](=O)[O-])cc1)Nc1ccc([N+](=O)[O-])cc1 is ___
Result block: inactive

Query block: How about Oc1ccc(Cl)cc1Cc1cc(Cl)ccc1O ?
Result block: active

Query block: How about CCOC(=O)[C@H](CCc1ccccc1)N[C@@H](C)C(=O)N1[C@H](C(=O)O)C[C@@H]2CCC[C@@H]21 ?
Result block: inactive

Query block: How about CCCCc1cc2ccccc2c(OCCN(C)C)n1 ?
Result block: inactive

Query block: How about C[C@@]12C(=O)OC(=O)[C@]1(C)C1CCC2O1 ?
Result block: active

---

Target: Glucocorticoid receptor (Homo sapiens) (UniProt P04150)
Sequence (P04150 whole entry, looked up): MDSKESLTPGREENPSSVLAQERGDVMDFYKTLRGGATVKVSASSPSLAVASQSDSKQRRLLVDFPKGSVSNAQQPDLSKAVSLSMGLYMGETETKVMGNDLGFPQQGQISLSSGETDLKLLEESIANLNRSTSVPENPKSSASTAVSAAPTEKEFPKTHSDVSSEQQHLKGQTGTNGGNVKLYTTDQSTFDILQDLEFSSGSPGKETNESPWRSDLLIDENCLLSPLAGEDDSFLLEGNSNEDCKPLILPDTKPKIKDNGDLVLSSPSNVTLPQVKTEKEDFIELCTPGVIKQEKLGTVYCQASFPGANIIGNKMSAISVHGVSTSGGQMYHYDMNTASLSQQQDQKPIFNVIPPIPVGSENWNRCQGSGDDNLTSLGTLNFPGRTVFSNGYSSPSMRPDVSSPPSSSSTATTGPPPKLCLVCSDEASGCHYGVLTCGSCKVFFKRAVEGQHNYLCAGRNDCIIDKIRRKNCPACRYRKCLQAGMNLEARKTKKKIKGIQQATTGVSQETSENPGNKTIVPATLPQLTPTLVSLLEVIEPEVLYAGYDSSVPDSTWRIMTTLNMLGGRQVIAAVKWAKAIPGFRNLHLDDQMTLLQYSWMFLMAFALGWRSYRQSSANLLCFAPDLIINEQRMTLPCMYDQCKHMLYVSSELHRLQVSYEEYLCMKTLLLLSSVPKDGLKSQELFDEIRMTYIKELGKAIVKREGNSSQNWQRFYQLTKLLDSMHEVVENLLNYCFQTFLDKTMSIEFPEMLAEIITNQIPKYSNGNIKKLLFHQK
Experiment: GR-GFP Redistribution (AID 450); note: potency is the fitted concentration of half-maximal effect
Details: U2OS GR-GFP nuclear translocation, laser cytometry, 2 h
Calls of active or inactive are those of the source.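 How the source made its calls: active means compounds whose dose series gives a full or clear partial fitted curve of increased nuclear translocation; inconclusive means weak partial curve or effect only at the top dose; inactive means no dose-dependent translocation response.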
test.readout: Potency

Solved cases (5 shown):
| compound | experimental.target | Potency |
| --- | --- | --- |
| C[N+]1(C)CCC(=C(c2ccccc2)c2ccccc2)CC1 | Glucocorticoid receptor (Homo sapiens) (UniProt P04150) | > 20.6 µM (inactive) |
| O=C(O)CCC(=O)Nc1ccc(S(=O)(=O)Nc2nccs2)cc1 | Glucocorticoid receptor (Homo sapiens) (UniProt P04150) | > 20.6 µM (inactive) |
| NS(=O)(=O)Cc1noc2ccccc12 | Glucocorticoid receptor (Homo sapiens) (UniProt P04150) | > 46 µM (inactive) |
| CC(C)(C)NCC(O)COc1cccc2c1C[C@H](O)[C@H](O)C2 (stereo partly specified) | Glucocorticoid receptor (Homo sapiens) (UniProt P04150) | > 20.6 µM (inactive) |
| Cc1c(-c2ccccc2)oc2c(C(=O)OCCN3CCCCC3)cccc2c1=O | Glucocorticoid receptor (Homo sapiens) (UniProt P04150) | > 20.6 µM (inactive) |

Okay, now this compound:
Query block: Which value of Potency has been reported for COc1cc(NS(=O)(=O)c2ccc(N)cc2)ncn1 in the records?
Result block: > 20.6 µM (inactive)
